Cited source: PubChem BioAssay (EPA / NIEHS)

Test: Tanguay_ZF_120hpf_MORT_legacy: (Legacy) Oregon State University Tanguay Lab 120 Hour Post-fertilization zebrafish Assay for Mortality (AID 2283633)
The source made the active and inactive calls. The calls were made as follows: active = hit-call score of the fitted dose curve at least 0.9, where 1 is the maximum; inconclusive = response in the unintended direction; inactive = score below 0.9.
Possible outcomes: YES = active, NO = inactive

# COMPOUND, CATEGORY
records = [
    ("Nc1ccc(Cc2ccc(N)cc2)cc1", "NO"),
    ("CN(C)c1ccc(C(=O)c2ccc(N(C)C)cc2)cc1", "YES"),
    ("Cn1cc(-c2ccccc2)c(=O)c(-c2cccc(C(F)(F)F)c2)c1", "NO"),
    ("O=C1CCCO1", "NO"),
    ("CCCCC(CC)COC(=O)c1ccc(C(=O)OCC(CC)CCCC)c(C(=O)OCC(CC)CCCC)c1 (stereo unspecified)", "NO"),
    ("CC(C)(OOC(C)(C)c1ccccc1)c1ccccc1", "NO"),
]

* * *

Test: APR_HepG2_MitoticArrest_24hr: Apredica 24-hour HepG2 Assay for Mitotic Arrest (AID 2282910)
Details: high-content imaging, actives raise or lower the signal
Calls of active or inactive are those of the source. The calls were made as follows: active = hit-call score of the fitted dose curve at least 0.9, where 1 is the maximum; inactive = score below 0.9.
Possible outcomes: Y (active), N (inactive)

# COMPOUND, CATEGORY
rows = [
    ("O=C(O)C1C2CCC(O2)C1C(=O)O (centres undefined)", "Y"),
    ("CN(C)c1ccccc1", "N"),
    ("CCC(C)c1ccc(O)cc1 (centres undefined)", "N"),
    ("Nc1ccc(Cl)cc1N", "N"),
    ("CCN(CC)N=O", "N"),
    ("N#CC(Br)(Br)C(N)=O", "N"),
    ("CC(C)(O)c1cnn2c(-c3ccc(F)c(-c4c(F)cccc4C#N)c3)cnc2n1", "Y"),
    ("CN(C)c1ccc(C(=O)c2ccc(N(C)C)cc2)cc1", "Y"),
    ("Clc1ccc(C(c2ccc(Cl)cc2)C(Cl)Cl)cc1", "Y"),
    ("O=Cc1ccco1", "N"),
    ("CN(C)[C@@H]1C(=O)C(C(N)=O)=C(O)[C@@]2(O)C(=O)C3=C(O)c4c(O)cccc4[C@@](C)(O)[C@H]3C[C@@H]12", "N"),
    ("CC(C)(OOC(C)(C)c1ccccc1)c1ccccc1", "Y"),
    ("Cc1ccc(N=C=O)cc1N=C=O", "N"),
    ("Cc1ccc(N)cc1", "N"),
]

* * *

Experiment: ATG_GLI_CIS: Attagene CIS-FACTORIAL HepG2 Assay for human Zinc Finger Protein GLI1 (AID 2282945)
Details: HepG2, Attagene cis-factorial reporter mRNA, GLI element; actives raise or lower the signal
Description: ATG_CIS is a cell-based, multiplexed-readout assay that uses HepG2, a human liver cell line, with measurements taken at 24 hours after chemical dosing in a 24-well plate.ATG_GLI_CIS is one of 52 assay component(s) measured or calculated from the ATG_CIS assay. […] This assay endpoint, ATG_GLI_CIS, was analyzed with bidirectional fitting relative to DMSO as the negative control and baseline of activity. […]
Active and inactive are the calls of the source. How the source made its calls: active means hit-call score of the fitted dose curve at least 0.9, where 1 is the maximum; inactive means score below 0.9.
Possible outcomes: true (1) for active, false (0) for inactive

# MOLECULE, CATEGORY
rows = [
    ("O=C(O)C1C2CCC(O2)C1C(=O)O (stereo not drawn)", "true (1)"),
    ("Oc1ccc2ccc3cccc4ccc1c2c34", "false (0)"),
    ("CCCCCCCCCCCCCN1CC(C)OC(C)C1 (stereo not drawn)", "false (0)"),
    ("ClC1=C(Cl)[C@]2(Cl)[C@H]3[C@H]([C@@H]4C=C[C@H]3C4)[C@@]1(Cl)C2(Cl)Cl", "false (0)"),
    ("Cc1cc(N=Nc2ccccc2C)ccc1N", "false (0)"),
    ("CCCCC(CC)COC(=O)c1ccc(C(=O)OCC(CC)CCCC)c(C(=O)OCC(CC)CCCC)c1 (stereo not drawn)", "false (0)"),
    ("[As]#[In]", "false (0)"),
    ("O=[N+]([O-])C(Br)(CO)CO", "true (1)"),
    ("CCOc1cccc(C2(N3CCN(c4ccccc4)CC3)CCC(C)CC2)c1 (stereo not drawn)", "false (0)"),
    ("CCC12COCN1COC2", "false (0)"),
    ("COC(=O)Nc1nc2ccccc2[nH]1", "false (0)"),
    ("O=C(Nc1ccccc1)c1ccccc1I", "false (0)"),
    ("Cc1ccc(N=C=O)cc1N=C=O", "false (0)"),
]

* * *

Experiment: CCTE_Shafer_MEA_acute_burst_duration_mean: CCTE's Neural Acute Assay for Mean Burst Duration, Shafer Lab (AID 2284014);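 also: hits are decreases in mean burst duration relative to DMSO controls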
Activity calls are given as the source filed them. The calls were made as follows: active = hit-call score of the fitted dose curve at least 0.9, where 1 is the maximum; inactive = score below 0.9.
Possible outcomes: active, inactive

# MOLECULE, CATEGORY
rows = [
    ("CC(C)(O)c1cnn2c(-c3ccc(F)c(-c4c(F)cccc4C#N)c3)cnc2n1", "inactive"),
    ("Cc1ccc(N)c(N)c1", "inactive"),
    ("CC(C)(C)C(O)(CCc1ccc(Cl)cc1)Cn1cncn1 (configuration not stated)", "inactive"),
    ("CC(C)(OOC(C)(C)c1ccccc1)c1ccccc1", "inactive"),
    ("O=[N+]([O-])C(Br)(CO)CO", "active"),
    ("O=C(Oc1ccc(Br)cc1)N1CCN2CCC1CC2", "inactive"),
    ("CCN(CC)N=O", "inactive"),
]

* * *

Read-out: Vascular cell adhesion molecule 1 (VCAM1), VCAM1 (gene 7412)
Experiment: BSK_LPS_VCAM1: BioMAP Diversity Plus: LPS Assay for Vascular cell adhesion molecule 1 (VCAM1) Biomarker Activity (AID 2283086)
Details: primary human HUVEC with PBMC; actives raise or lower the signal
Active and inactive are the calls of the source. Rule for the calls: active = hit-call score of the fitted dose curve at least 0.9, where 1 is the maximum; inactive = score below 0.9.
Possible outcomes: 1 (yes) (active), 0 (no) (inactive)

# COMPOUND, CATEGORY
data = [
    ("CCCCCCCCOC(=O)c1ccc(C(=O)OCCCCCCCC)c(C(=O)OCCCCCCCC)c1", "0 (no)"),
    ("Cc1ccc(N=C=O)cc1N=C=O", "0 (no)"),
    ("CC(C)(OOC(C)(C)c1ccccc1)c1ccccc1", "1 (yes)"),
    ("Clc1ccc(C(c2ccc(Cl)cc2)C(Cl)(Cl)Cl)cc1", "1 (yes)"),
    ("Nc1ccc([N+](=O)[O-])cc1", "0 (no)"),
    ("[As]#[In]", "0 (no)"),
    ("Nc1ccc(Cc2ccc(N)cc2)cc1", "0 (no)"),
    ("Cc1ccc(N)cc1", "0 (no)"),
    ("CCOc1cccc(C2(N3CCN(c4ccccc4)CC3)CCC(C)CC2)c1 (stereo not given)", "0 (no)"),
    ("Clc1ccccc1Cl", "0 (no)"),
    ("N#CC(Br)(Br)C(N)=O", "0 (no)"),
    ("CC(C)COC(=O)c1ccccc1C(=O)OCC(C)C", "1 (yes)"),
    ("CCN(CC)CCO", "0 (no)"),
    ("Nc1ccc(N=Nc2ccccc2)cc1", "1 (yes)"),
    ("OCCCl", "0 (no)"),
]

* * *

Read-out: Matrix Metallopeptidase 9 (MMP9), MMP9 (gene 4318)
Assay: BSK_KF3CT_MMP9: BioMAP Diversity Plus: KF3CT Assay for Matrix Metallopeptidase 9 (MMP9) Biomarker Activity (AID 2283074)
Conditions: primary human keratinocytes with fibroblasts; actives raise or lower the signal
The source made the active and inactive calls. Rule for the calls: active = hit-call score of the fitted dose curve at least 0.9, where 1 is the maximum; inactive = score below 0.9.
Possible outcomes: 1 = active, -1 = inactive

# COMPOUND, CATEGORY
records = [
    ("CCCSC(=O)N(CCC)CCC", -1),
    ("Cc1ccc([N+](=O)[O-])cc1", -1),
    ("CC(C)(C)C(O)(CCc1ccc(Cl)cc1)Cn1cncn1 (stereo not drawn)", -1),
    ("Nc1ccc(N=Nc2ccccc2)cc1", 1),
    ("O=C(N[C@H](c1ccccc1)[C@@H]1CN2CCC1CC2)c1c(Cl)ccc(C(F)(F)F)c1Cl", 1),
    ("CCN(CC)N=O", -1),
    ("CC(C)(OOC(C)(C)c1ccccc1)c1ccccc1", -1),
    ("ClC1=C(Cl)C2(Cl)C3C(Cl)C=CC3C1(Cl)C2(Cl)Cl (stereo not drawn)", 1),
    ("O=[N+]([O-])C(Br)(CO)CO", 1),
    ("Nc1ccc(Oc2ccc(N)cc2)cc1", -1),
    ("CN(C)c1ccccc1", -1),
    ("c1ccc(NNc2ccccc2)cc1", -1),
    ("CN(C)c1ccc(C(=O)c2ccc(N(C)C)cc2)cc1", -1),
    ("COP(=S)(OC)SCN1C(=O)c2ccccc2C1=O", -1),
    ("CCCCCCCCn1sccc1=O", 1),
    ("Oc1ccc2ccc3cccc4ccc1c2c34", 1),
    ("ClC1=C(Cl)[C@]2(Cl)[C@H]3[C@H]([C@@H]4C=C[C@H]3C4)[C@@]1(Cl)C2(Cl)Cl", 1),
    ("Cc1ccc(N)cc1", -1),
    ("CCN(CC)CCO", -1),
    ("CC(C)N(Cc1ccccc1)C(=O)C(C)(C)C", -1),
    ("CO[C@@H]1[C@H](OC(=O)NC(=O)CCl)CC[C@]2(CO2)[C@H]1[C@@]1(C)O[C@@H]1CC=C(C)C", 1),
    ("Clc1ccc(C(c2ccc(Cl)cc2)C(Cl)Cl)cc1", 1),
    ("c1ccc2c(c1)oc1ccccc12", -1),
]
